Please respond with reported inhibition at 10 µM for every item in the list.
System: IL-8 secreted by human pulmonary artery endothelial cells (HPAEC)
Assay: In vitro IL-8 assay: TNF-alpha-stimulated IL-8 secretion by HPAEC, ELISA
Assay type: cell-based
Conditions: Endothelial cell, 10 microM compound, 20 hrs preincubation, then 2 ng/ml TNF-alpha for 4 hrs
Just the number please, in %, no unit attached.

// query Dear colleague, I am looking for the recorded inhibition at 10 µM of the following compound: Cc1cc2c(cc1O)C(C)(C)CC1(CC(C)(C)c3cc(O)c(C)cc3O1)O2 (racemic)
// result 51

// query Try Cc1cc2c(cc1O)C(C)(C)CC1(CC(C)(C)c3cc(OCC(=O)O)c(C)cc3O1)O2 (racemic) next.
// result 0

// query Try Cc1cc(C)n(CCOc2cc3c(cc2C)OC2(CC(C)(C)c4cc(O)c(C)cc4O2)CC3(C)C)n1 (racemic) next.
// result 12

// query Try Cc1cc2c(cc1O)C(C)(C)CC1(CC(C)(C)c3cc(OC[C@@H](O)CO)c(C)cc3O1)O2 (mixture of isomers) next.
// result 11
